Provide the reported self-cleavage kobs at 2500 uM GlcN6P of each item.
B1: glmS ribozyme (parent)
chain: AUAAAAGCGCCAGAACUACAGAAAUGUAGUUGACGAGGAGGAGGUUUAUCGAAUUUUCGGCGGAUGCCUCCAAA

# Variants of: B1
# Assay Protocol: self-cleavage kobs at 2500 uM GlcN6P; higher = faster cleavage; RNA array
# Test Context: with glucosamine-6-phosphate
Fewer inactive variants are shown than the library holds.
Report the figure in s⁻¹ without appending any unit label.

Task: Given A15U U54A , state its recorded self-cleavage kobs at 2500 uM GlcN6P.
Output: 0.00516

Task: Given G37A C68U , state its recorded self-cleavage kobs at 2500 uM GlcN6P.
Output: 3.08e-05

Task: Given A14G U45G C71U , state its recorded self-cleavage kobs at 2500 uM GlcN6P.
Output: 0.0021

Task: Given C58A C68G , state its recorded self-cleavage kobs at 2500 uM GlcN6P.
Output: 4.14e-05

Task: Given U30G A42G U55G , state its recorded self-cleavage kobs at 2500 uM GlcN6P.
Output: 0.0026

Task: Given A39C U65A , state its recorded self-cleavage kobs at 2500 uM GlcN6P.
Output: 0.000191

Task: Given A64G U65C , state its recorded self-cleavage kobs at 2500 uM GlcN6P.
Output: 8.88e-05

Task: Given A52G U69G , state its recorded self-cleavage kobs at 2500 uM GlcN6P.
Output: 7.25e-05

Task: Given A39G U47C , state its recorded self-cleavage kobs at 2500 uM GlcN6P.
Output: 0.00728

Task: Given A39U A42G A64U , state its recorded self-cleavage kobs at 2500 uM GlcN6P.
Output: 5.16e-05

Task: Given A53G G59U , state its recorded self-cleavage kobs at 2500 uM GlcN6P.
Output: 2.98e-05

Task: Given G37A G44C , state its recorded self-cleavage kobs at 2500 uM GlcN6P.
Output: 4.54e-05

Task: Given A12U U45G U46A , state its recorded self-cleavage kobs at 2500 uM GlcN6P.
Output: 0.00886

Task: Given G29U G32C A53G C70U , state its recorded self-cleavage kobs at 2500 uM GlcN6P.
Output: 6e-05

Task: Given C11U A42G , state its recorded self-cleavage kobs at 2500 uM GlcN6P.
Output: 0.00178

Task: Given A14G G29A G44A , state its recorded self-cleavage kobs at 2500 uM GlcN6P.
Output: 6.19e-05

Task: Given G37A U47A , state its recorded self-cleavage kobs at 2500 uM GlcN6P.
Output: 0.000752

Task: Given A12C U45A C67G , state its recorded self-cleavage kobs at 2500 uM GlcN6P.
Output: 0.000527

Task: Given A14U A53G , state its recorded self-cleavage kobs at 2500 uM GlcN6P.
Output: 0.00365

Task: Given U31G G41U U47G , state its recorded self-cleavage kobs at 2500 uM GlcN6P.
Output: 0.000232

Task: Given `A64G` , state its recorded self-cleavage kobs at 2500 uM GlcN6P.
Output: 0.0249

Task: Given U54A C67U , state its recorded self-cleavage kobs at 2500 uM GlcN6P.
Output: 0.00976

Task: Given C34A G38U C50G , state its recorded self-cleavage kobs at 2500 uM GlcN6P.
Output: 9.01e-05

Task: Given G32A C67A , state its recorded self-cleavage kobs at 2500 uM GlcN6P.
Output: 0.000586
